Target: human recombinant COX-2 (Homo sapiens, UniProt P35354)
Construct: purchased Cayman Chemical 560131
Sequence (P35354 18-604): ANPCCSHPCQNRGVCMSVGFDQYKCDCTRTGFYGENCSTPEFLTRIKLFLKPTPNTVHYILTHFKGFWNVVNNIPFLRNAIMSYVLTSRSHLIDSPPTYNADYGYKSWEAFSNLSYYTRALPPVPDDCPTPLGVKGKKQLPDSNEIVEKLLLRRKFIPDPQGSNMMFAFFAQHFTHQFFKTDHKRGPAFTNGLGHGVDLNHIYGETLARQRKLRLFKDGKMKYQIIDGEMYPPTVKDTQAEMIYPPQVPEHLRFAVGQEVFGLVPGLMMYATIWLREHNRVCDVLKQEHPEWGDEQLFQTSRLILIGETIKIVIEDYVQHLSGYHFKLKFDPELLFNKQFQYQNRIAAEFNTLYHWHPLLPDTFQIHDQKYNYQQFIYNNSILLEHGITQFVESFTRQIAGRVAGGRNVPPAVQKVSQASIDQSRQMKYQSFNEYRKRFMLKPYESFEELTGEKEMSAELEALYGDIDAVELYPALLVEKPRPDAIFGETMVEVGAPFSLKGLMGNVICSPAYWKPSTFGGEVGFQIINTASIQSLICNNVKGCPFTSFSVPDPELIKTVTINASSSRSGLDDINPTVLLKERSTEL
Assay: In vitro COX-2 inhibition, enzyme immunoassay kit (Cayman item no. 560131)
Type: biochemical
Conditions: human recombinant COX-2; mean of two determinations; read-out: IC50 COX-2
Source text: The in vitro COX-1/COX-2 isozyme inhibition studies measure the ability of tested compounds to inhibit bovine COX-1 and human recombinant COX-2 using an enzyme immunoassay (COX inhibitor screening assay kit, item no. 560131) according to the manufacturer’s instructions. […].
parameter_measured: IC50

                                    compound  parameter_measured  data_value
 0  Nc1ncc(Sc2nnc(COc3ccc4ccccc4c3)n2N=Cc2cccc([N+](=O)[O-])c2)s1 [Compound 12c]                IC50       40 nM
 1  COc1ccc(C=Nn2c(COc3ccc4ccccc4c3)nnc2SC(=O)CCl)cc1 [Compound 10d]                IC50      110 nM
 2  O=C(CCl)Sc1nnc(COc2ccc3ccccc3c2)n1N=Cc1ccccc1O [Compound 10b]                IC50      140 nM
 3  Nc1ncc(Sc2nnc(COc3ccc4ccccc4c3)n2N=Cc2ccccc2O)s1 [Compound 12b]                IC50       60 nM
 4  Nc1ncc(Sc2nnc(COc3ccc4ccccc4c3)n2N=Cc2ccccc2)s1 [Compound 12a]                IC50      100 nM
 5  Oc1ccccc1C=Nn1c(S)nnc1COc1ccc2ccccc2c1 [Compound 9b]                IC50      190 nM
 6  Sc1nnc(COc2ccc3ccccc3c2)n1N=Cc1ccccc1 [Compound 9a]                IC50      220 nM
 7  COc1ccc(C=Nn2c(COc3ccc4ccccc4c3)nnc2Sc2cnc(N)s2)cc1 [Compound 12d]                IC50       40 nM
 8  O=[N+]([O-])c1cccc(C=Nn2c(S)nnc2COc2ccc3ccccc3c2)c1 [Compound 9c]                IC50      130 nM
 9  O=C(CCl)Sc1nnc(COc2ccc3ccccc3c2)n1N=Cc1cccc([N+](=O)[O-])c1 [Compound 10c]                IC50      120 nM
10  COc1ccc(C=Nn2c(COc3ccc4ccccc4c3)nnc2Sc2cnc(N)o2)cc1 [Compound 11d]                IC50       60 nM
